# Test system: 782815-120-R-J1-PDC complex spheroid viability;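 note: spheroids exposed to compounds for 7 days before reading; 100% = DMSO vehicle control viability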
# measurement-protocol: Anticancer human tumor 782815-120-R-J1-PDC patient-derived colon adenocarcinoma cell line growth inhibition [RAS]
# reported-conditions: second compound 0.1 µM; first compound 10 µM; stronger effect = lower value
# From the text: RAS pathway inhibitors in Combinations in Complex Spheroids A high-throughput screen of multi-cell type tumor spheroids was designed to identify active combinations of RAS pathway inhibitors and targeted small molecules. Complex spheroids include a stromal component modeled by human endothelial cells (HUVEC) and fibroblasts modeled by human mesenchymal stem cells (MSCs). […] Compounds. […] If the clinical Cmax for an agent had not been determined, the highest concentration tested was 10 microM. […]
readout-label: viability, T/C (%)
Report only the number, with the unit % understood.

Form field, viability, T/C with 782815-120-R-J1-PDC complex spheroid viability, item C[C@@H](NC(=O)c1ncnc(N)c1Cl)c1ncc(C(=O)Nc2cc(C(F)(F)F)c(Cl)cn2)s1 + C#Cc1c(F)ccc2cc(O)cc(-c3ncc4c(N5CC6CCC(C5)N6)nc(OCC56CCCN5CC(F)C6)nc4c3F)c12 : 71.4

Form field, viability, T/C with 782815-120-R-J1-PDC complex spheroid viability, item NC1c2ccccc2OC12CCN(c1cnc3c(N4CCCc5ncccc54)n[nH]c3n1)CC2 (centres undefined) + C=CC(=O)N1CCN(c2nc(OCC3CCCN3C)nc3c(F)c(-c4nc(N)cc(C)c4C(F)(F)F)c(Cl)cc23)C(C)C1 : 79.7

Form field, viability, T/C with 782815-120-R-J1-PDC complex spheroid viability, item CC(Nc1ccc2c(c1)OCCn1cc(N3C(=O)OCC3C(F)F)nc1-2)C(N)=O (centres undefined) + C=CC(=O)N1CCN(c2nc(OCC3CCCN3C)nc3c(F)c(-c4nc(N)cc(C)c4C(F)(F)F)c(Cl)cc23)C(C)C1 : 93.2

Form field, viability, T/C with 782815-120-R-J1-PDC complex spheroid viability, item CC(Nc1ccc2c(c1)OCCn1cc(N3C(=O)OCC3C(F)F)nc1-2)C(N)=O (centres undefined) + C#Cc1c(F)ccc2cc(O)cc(-c3ncc4c(N5CC6CCC(C5)N6)nc(OCC56CCCN5CC(F)C6)nc4c3F)c12 : 94.1
